Cited source: patent US20190367616A1

- Tested System: T1, human PD-1 ECD (Acro Biosystems cat. no. PD1-H52219) (human, UniProt Q15116 25-170)
- T1 construct: extracellular domain; Bought monomeric ECD; also called monomeric PD-1 antigen
- T1 sequence (Q15116 25-170, one chain of several): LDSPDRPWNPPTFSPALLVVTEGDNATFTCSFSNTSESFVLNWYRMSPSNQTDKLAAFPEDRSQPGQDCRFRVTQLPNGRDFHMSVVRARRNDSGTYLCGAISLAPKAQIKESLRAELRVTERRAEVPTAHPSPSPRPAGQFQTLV
- Experiment: SPR, antibody on sensor, monomeric PD-1 ECD in solution
Attribute Measured: pKd
In simple prose, pKd is minus the logarithm base ten of a concentration in moles per litre.

Solved cases (5 shown):
{"Binder": "antibody 18049 (antibody, V domains shown, Tested as human IgG1 L234A/L235A (LALA), kappa) VH: QVQLVESGGGVVQPGRSLRLSCAASGFTFSNYGMHWVRQAPGKGLEWVAVIWYDGSDKYYADSVKGRFTISRDNSKNTLYLQMNSLRAEDTAVYYCAGGGNYYGDFWGQGTLVTVSS VL: EIVMTQSPSSLSASVGDRVTITCRASQGIRNDLGWYQQKPGKAPKRLIYVASNLQSGVPSRFSGSGSGTEFTLTISSLQPEDFATYYCLQYNSYPWTFGQGTKVEIKR", "pKd": 8.74}
{"Binder": "antibody 18325 (antibody, V domains shown, Tested as human IgG1 L234A/L235A (LALA), kappa) VH: QVQLQQSGGGLVQPGGSLRLSCAASGFTFSSHVMNWVRQAPGKGLEWVATISGSGVDTYYADSVKGRFTISRGNSKNMLYLQMNSLRAEDTAVYYCAKWGSWSAGAFDIWGQGTMVTVSS VL: EIVLTQSPSSVSASVGDRVTITCRASQGISSWLAWYQQKPGKAPKLLIYAASSLQSGVPSRFSGSGSGTDFTLTISSLQPEDFATYYCQQANSFPWTFGQGTKVEIKR", "pKd": 9.09}
{"Binder": "antibody 18113 (antibody, V domains shown, Tested as human IgG1 L234A/L235A (LALA), kappa) VH: QVQLVESGGGLVKPGGSLRLSCAASGFTFSDYYMSWIRQAPGKGLEWVSYISSSGSTIYYADSAKGRFTISRDNAKNSLYLQMNSLRAEDTAVYYCARDTNWAFDYWGQGTLVTVSS VL: DIQLTQSPDSLAVSLGERATINCKSSQSVFYSANNKNYLAWYQQKPGQPPKLLIYWTSTRESGVPDRFRGSGSGTDFTLTISSLQAEDVAVYYCQQFYSTPRTFGQGTKVEIKR", "pKd": 9.22}
{"Binder": "antibody 18413 (antibody, V domains shown, Tested as human IgG1 L234A/L235A (LALA), kappa) VH: EVQLVESGGGLVQPGGSLRLSCAASGFTFSSFVMSWVRQAPGKGLEWLSTISGGGGSTYYADSVKGRFTISRDNSKNTLYLQMNSLRAEDTAVYYCAKDWDLYYFDYWGQGTLVTVSS VL: DIQLTQSPSSVPASVGDRVTITCRASQGISNWLAWYQQKPGKAPKLLIYAASSLQSGVPSRFSGSGSGTDFTLTISSLQPEDFATYYCQQANSFPLTFGGGTKVEIKR", "pKd": 8.82}
{"Binder": "antibody 18098 (antibody, V domains shown, Tested as human IgG1 L234A/L235A (LALA), kappa) VH: QVQLQESGGGLVRPGGSLRLSCAASGFTFSSFAMNWVRQAPGKGLVWVSTITGGGTTSYYADSVKGRFTISRDNSKSTLFLQMNSLRAEDTAVYYCAKWGSWSAGAFDIWGQGTTVTVSS VL: DIQLTQSPSSVSASVGDRVTITCRASQGISSWLAWYQQKPGKAPKLLIYAASSLQSGVPSRFSGSGSGTDFTLTISSLQPEDFATYYCQQANSFPWTFGQGTKVEIKR", "pKd": 8.64}

Switching to the query record.
Q. Quick check: pKd of antibody 18400 (antibody, V domains shown, Tested as human IgG1 L234A/L235A (LALA), kappa) VH: QLQLQESGPGLVKPSGTLSLTCAVSGGSISSSNWWSWVRQPPKKGLEWVGEIFHDGTTSYNPSLKSRVTMSVDKSKNQFSLKLSSVTAADTAVYYCARGNWGSGALDIWGPGTMVTVSS VL: EIVMTQSPSPLSASVGDRVTITCRASQGIRNDLGWYQQKPGKAPKLLIYAASSLQSGVPSRFSGSGSGTDFTLTISSLQPEDFATYYCLQDYNYPRTFGQGTKVEIKR ?
A. 8.80
